In this section we review reported MIC values for a set of compounds.
- System: Staphylococcus aureus No. 5 (MRSA)
- ASSAY EXPLANATION: Antibacterial specific activity, twofold dilutions, visual growth evaluation
- Assay type: cell-based
- EXPERIMENTAL CONDITIONS: St. aur No. 5 MRSA; 36° C., 24 hours
QUANTITY MEASURED: MIC (µM)

{"COMPOUND": "C=CC1=C(C)c2cc3[n-]c(cc4[n-]c(cc5nc(cc1n2)C(C)=C5C=C)c(C)c4CCC(=O)N[C@@H](CCC(=O)NCCO)C(=O)NCCO)c(CCC(=O)N[C@@H](CCC(=O)NCCO)C(=O)NCCO)c3C.[Cl-].[Fe+3]", "MEASUREMENT UNIT": "µM", "MEAS VALUE": 12.5}
{"COMPOUND": "C=CC1=C(C)c2cc3[n-]c(cc4[n-]c(cc5nc(cc1n2)C(C)=C5C=C)c(C)c4CCC(=O)N[C@@H](CO)C(N)=O)c(CCC(=O)N[C@@H](CO)C(N)=O)c3C.[Cl-].[Fe+3]", "MEASUREMENT UNIT": "µM", "MEAS VALUE": 1.56}
{"COMPOUND": "C=CC1=C(C)c2cc3[n-]c(cc4[n-]c(cc5nc(cc1n2)C(C)=C5C=C)c(C)c4CCC(=O)N[C@@H](CCCNC(=N)N)C(N)=O)c(CCC(=O)N[C@@H](CCCNC(=N)N)C(N)=O)c3C.[Cl-].[Fe+3]", "MEASUREMENT UNIT": "µM", "MEAS VALUE": 41}
{"COMPOUND": "C=CC1=C(C)c2cc3[n-]c(cc4[n-]c(cc5nc(cc1n2)C(C)=C5C=C)c(C)c4CCC(=O)N[C@@H](CO)C(=O)O)c(CCC(=O)N[C@@H](CO)C(=O)O)c3C.[Cl-].[Fe+3] [VI, 6,7-bis-(N^α-Seryl]-Protohemin (IX)]", "MEASUREMENT UNIT": "µM", "MEAS VALUE": 0.78}

###

In this section we review reported MBC values for a set of compounds.
- System: Micrococcus luteus BKM Ac-2230
- ASSAY EXPLANATION: Antibacterial activity, serial dilutions in liquid MH medium
- Type: cell-based
- EXPERIMENTAL CONDITIONS: no colonies on agarized MH medium
QUANTITY MEASURED: MBC (µM)

{"COMPOUND": "C=CC1=C(C)C2=Cc3c(C=C)c(C)c4[n]3[Fe]([Cl])[n]3c(c(C)c(CCC(=O)N[C@@H](CCCNC(=N)N)C(=O)OC)c3=CC3=NC(=C4)C(C)=C3CCC(=O)N[C@@H](CCCNC(=N)N)C(=O)OC)=CC1=N2 [XV, reference compound]", "MEASUREMENT UNIT": "µM", "MEAS VALUE": 3.2}
{"COMPOUND": "C=CC1=C(C)c2cc3[n-]c(cc4[n-]c(cc5nc(cc1n2)C(C)=C5C=C)c(C)c4CCC(=O)N[C@@H](CO)C(=O)O)c(CCC(=O)N[C@@H](CO)C(=O)O)c3C.[Cl-].[Fe+3] [VI, 6,7-bis-(N^α-Seryl]-Protohemin (IX)]", "MEASUREMENT UNIT": "µM", "MEAS VALUE": 25}
{"COMPOUND": "C=CC1=C(C)C2=Cc3c(C=C)c(C)c4[n]3[Fe]([Cl])[n]3c(c(C)c(CCC(=O)N[C@@H](CCC(=O)N[C@@H](CCCNC(=N)N)C(=O)OC)C(=O)N[C@@H](CCCNC(=N)N)C(=O)OC)c3=CC3=NC(=C4)C(C)=C3CCC(=O)N[C@@H](CCC(=O)N[C@@H](CCCNC(=N)N)C(=O)OC)C(=O)N[C@@H](CCCNC(=N)N)C(=O)OC)=CC1=N2 [XVI, reference compound]", "MEASUREMENT UNIT": "µM", "MEAS VALUE": 12.5}
{"COMPOUND": "C=CC1=C(C)C2=Cc3c(C=C)c(C)c4[n]3[Fe]([Cl])[n]3c(c(C)c(CCC(=O)N[C@@H](CO)C(=O)OC)c3=CC3=NC(=C4)C(C)=C3CCC(=O)N[C@@H](CO)C(=O)OC)=CC1=N2 [XVIII, reference compound]", "MEASUREMENT UNIT": "µM", "MEAS VALUE": 12.5}

The reported measurements were obtained from patent US9605013B2.
